Target: T1, human TL1A extracellular domain with N-terminal HIS and FLAG tag (human, UniProt O95150 72-251)
T1 construct: the whole entry is named; also called TNFSF15
T1 sequence: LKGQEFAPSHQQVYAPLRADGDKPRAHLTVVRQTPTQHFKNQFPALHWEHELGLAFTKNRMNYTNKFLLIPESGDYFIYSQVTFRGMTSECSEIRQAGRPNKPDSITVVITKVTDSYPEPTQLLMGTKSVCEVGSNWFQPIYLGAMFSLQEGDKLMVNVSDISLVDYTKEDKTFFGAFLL
Assay: SPR Run 9, antibody on Protein A, TL1A 5 ug/mL, timepoint 44
MEASUREMENT_TYPE: TL1A Binding Level (Early) (RU)
Numbers only here, please. The scale is RU.

In the examples that follow, each entry is paired with its recorded TL1A Binding Level (Early).
BINDER	UNITS_TEXT	TL1A Binding Level (Early)
320-613 (antibody, human IgG1, name in Kabat numbering, V domains shown, full-length human IgG1, lambda) VH: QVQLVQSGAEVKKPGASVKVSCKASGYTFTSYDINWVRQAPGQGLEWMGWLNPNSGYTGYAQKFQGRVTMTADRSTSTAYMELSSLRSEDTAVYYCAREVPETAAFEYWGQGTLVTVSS VL: QSVLTQPPSVSGAPGQRVTISCTSSSSDIGAGLGVHWYQQLPGTAPKLLIEGYYNRPSGVPDRFSGSKSGTSASLTITGLLPEDEGDYYCQSWDYTLSALFGGGTKLTVLG	RU	135
320-611 (antibody, human IgG1, name in Kabat numbering, V domains shown, full-length human IgG1, lambda) VH: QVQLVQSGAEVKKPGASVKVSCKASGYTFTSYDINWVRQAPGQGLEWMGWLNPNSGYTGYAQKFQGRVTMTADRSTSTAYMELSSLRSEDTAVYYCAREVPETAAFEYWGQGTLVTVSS VL: QSVLTQPPSVSGAPGQRVTISCTSSSSDIGAGLGVHWYQQLPGTAPKLLIEGYYNRPSGVPDRFSGSKSGTSASLTITGLLPEDEGDYYCQSWDKTLSALFGGGTKLTVLG	RU	125

In the following, a different binder is considered.
In: Given the entry 320-616 (antibody, human IgG1, name in Kabat numbering, V domains shown, full-length human IgG1, lambda) VH: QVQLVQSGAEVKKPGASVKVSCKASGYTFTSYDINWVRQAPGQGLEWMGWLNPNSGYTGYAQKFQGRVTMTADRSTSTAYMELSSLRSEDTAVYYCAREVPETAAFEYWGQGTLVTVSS VL: QSVLTQPPSVSGAPGQRVTISCTSSSSDIGAGLGVHWYQQLPGTAPKLLIEGYYNRPSGVPDRFSGSKSGTSASLTITGLLPEDEGDYYCQSYDATLSALFGGGTKLTVLG , report its measured TL1A Binding Level (Early).
Out: 120
